Test system: SKOV3
Assay: Primary qHTS to identify gynecologic anti-cancer compounds using libraries of approved drugs and bioactive compounds (AID 1345084); also: nearly all actives have a fitted effect of over 55% in size; as to activity change, negative = cytotoxicity: % is scaled to controls: 0 for no effect and ±100 for the full control effect
Conditions: Gynecologic cancer cell panel viability, ATPlite luminescence, 48 h; series mostly up to 57.5 µM
Inconclusive results are not listed. Active and inactive are the calls of the source. Calls follow the shape of the dose curve; as a rule, active = well fitted cell-killing curve with a large enough effect; inconclusive = small, poorly fitted or top-dose-only effect, or effect the other way; inactive = flat fitted curve, though single readings scatter.
readout.label: activity change, negative = cytotoxicity

The examples below pair each entry with its known result.
molecule | assay.target | activity change, negative = cytotoxicity
C=CC(C)(O)CC/C=C(\C)C(=O)O[C@H]1[C@H](O)[C@@H](CO)O[C@@H](OC(=O)[C@]23CCC(C)(C)CC2C2=CCC4[C@@]5(C)CC[C@H](O[C@@H]6O[C@H](CO[C@@H]7OC[C@H](O)[C@H](O)[C@H]7O[C@@H]7OC[C@@H](O)[C@H](O)[C@H]7O)[C@@H](O)[C@H](O)[C@H]6O)C(C)(C)C5CC[C@@]4(C)[C@]2(C)CC3)[C@@H]1OC1OC(C)C(O[C@@H]2OC[C@@H](O)[C@H](O[C@@H]3OC[C@@H](O)[C@H](O)[C@H]3O)[C@H]2O)C(O)C1O (some centres undefined) | SKOV3 | 0% [at 6.55 µM] (inactive)
C/C=C(\C)C(=O)O[C@H]1[C@H](OC(C)=O)[C@]2(CO)[C@H](O)[C@H](O)[C@]3(C)C(=CCC4[C@@]5(C)CC[C@H](O[C@@H]6O[C@H](C(=O)O)[C@@H](O)[C@H](O[C@@H]7OC[C@H](O)[C@H](O[C@@H]8OC[C@H](O)[C@H](O)[C@H]8O)[C@H]7O)[C@H]6O[C@@H]6O[C@H](CO)[C@@H](O)[C@H](O)[C@H]6O)C(C)(C)C5CC[C@]43C)[C@@H]2CC1(C)C (some centres undefined) | SKOV3 | 6.49% [at 6.55 µM] (inactive)
CCCCCCn1c(=O)c(C(=O)Nc2ccc(C(=O)OCCC)cc2)c(O)c2ccccc21 | SKOV3 | -0.233% [at 11.6 µM] (inactive)

Prompt: Sample C/C=C(\C)C(=O)OC1C(C)OC(OC2C(C)OC(OC3CCC4(C)C(=CCC5C4CCC4(C)C(C(C)OC6OC(COC7OC(CO)C(O)C(O)C7O)C(O)C(O)C6O)CCC54O)C3)CC2OC)C(O)C1OC (centres undefined) — what was its activity change, negative = cytotoxicity?
Response: -10% [at 11.6 µM] (inactive)

* * *

Target: Estrogen receptor (Homo sapiens)
Assay: qHTS assay for small molecule antagonists of estrogen receptor alpha signaling (AID 588513); also: % is scaled to controls: 0 for no effect and ±100 for the full control effect
Settings: ER-alpha-UAS-bla HEK293, beta-lactamase ratio, antagonist mode; series mostly up to 76.9 µM
Records with an inconclusive call do not appear. Activity calls are given as the source filed them. Calls come from the whole dose curve; as a rule, active = well fitted curve in the direction sought with a large enough effect in the signal ratio, with a control signal flat (not every such curve was filed as active); inconclusive = small, poorly fitted or top-dose-only effect, or effect the other way, or a change in a side signal; inactive = no such curve, though single readings can be large or run the other way; the % refers to the signal ratio.
Permitted responses: active, inactive

Study these solved cases before continuing.
molecule | class.assignment
O=C/C=C/c1ccccc1 | inactive
O=C1CCO1 | inactive
[O]=[Cr](=[O])([OH])[O][Cr](=[O])(=[O])[OH] | inactive
CCCCCCCCOC(=O)c1ccccc1C(=O)OCCCCCCCC | inactive
C=CCN=C=S | inactive

Prompt: Each molecule tested received a call. Report the one for N#CN .
Response: inactive

Prompt: # fetch the recorded call for [O]=[Cd] here
Response: inactive

Prompt: Look up the recorded call for ClCC1CO1 (configuration not stated) in this test.
Response: inactive

* * *

Tested on: CP185
Experiment: qHTS profiling for inhibitors of Plasmodium falciparum proliferation (AID 504749);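 also: 0% = DMSO vehicle and full inhibition = artemisinin control; nearly all actives have a fitted effect of over 60% in size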
Conditions: P. falciparum in erythrocytes, SYBR Green DNA, 72 h; series mostly up to 28.7 µM
Results filed as inconclusive are left out. The source made the active and inactive calls. Calls follow the shape of the dose curve; as a rule, active = well fitted inhibition curve with a large enough effect; inconclusive = small, poorly fitted or top-dose-only effect; inactive = flat fitted curve, though single readings scatter.
readout.label: outcome

Record excerpt, results attached:
compound | assay.target | readout.label | value.measured
O=S(=O)(O)c1cc(O)ccc1O | CP185 | outcome | inactive
Cc1sc2ccccc2c1CC1=NCCN1 | CP185 | outcome | inactive
O=C1CCCCC1CN1CCCCC1 (centres undefined) | CP185 | outcome | inactive
CCC1C(C)=NN=C(c2ccc(OC)c(OC)c2)c2cc(OC)c(OC)cc21 (centres undefined) | CP185 | outcome | inactive
O=c1[nH]c(=O)n(Cl)c(=O)n1Cl | CP185 | outcome | inactive

Prompt: Could you share which outcome value was measured for O=Cc1ccco1 ?
Response: inactive

Prompt: I have this compound here, c1csc(C2(N3CCCCC3)CCCCC2)c1 , and I need its recorded outcome.
Response: inactive

Prompt: Entry [O]=[Cr](=[O])([OH])[O][Cr](=[O])(=[O])[OH] : reported outcome = ?
Response: inactive

Prompt: Form field: reported outcome of CCCC(C)(COC(N)=O)COC(=O)NC1CC1 (centres undefined)
Response: inactive

* * *

System: CP329
Assay: qHTS profiling for inhibitors of Plasmodium falciparum proliferation (AID 504749);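 also: 0% = DMSO vehicle and full inhibition = artemisinin control; nearly all actives have a fitted effect of over 60% in size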
Conditions: P. falciparum in erythrocytes, SYBR Green DNA, 72 h; series mostly up to 28.7 µM
Records with an inconclusive call do not appear. The source made the active and inactive calls. Calls follow the shape of the dose curve; as a rule, active = well fitted inhibition curve with a large enough effect; inconclusive = small, poorly fitted or top-dose-only effect; inactive = flat fitted curve, though single readings scatter.
readout.label: outcome

Previously resolved entries follow.
compound | outcome
COCC(C)N(C(=O)CCl)c1c(C)csc1C (configuration not stated) | inactive
[O]=[Cr](=[O])([OH])[O][Cr](=[O])(=[O])[OH] | inactive
O=CC=O | inactive
C=CCN1CC[C@]23c4c5ccc(O)c4O[C@H]2[C@@H](O)C=C[C@H]3[C@H]1C5 | inactive
Cc1sc2ccccc2c1CC1=NCCN1 | inactive
CCON=O | inactive

Let us examine a further case.
Prompt: Consider the compound shown here: CNC(C)C(O)c1ccc(O)cc1 (configuration not stated) What is its recorded outcome?
Response: inactive

* * *

Assay: Primary qHTS to identify inhibitors of SARS-CoV-2 cell entry (AID 1645846); also: nearly all actives have a fitted effect of over 45% in size
Details: SARS-CoV-2 pseudovirus cell entry assay, luminescence; series mostly up to 57.1 µM
Results filed as inconclusive are left out. Activity calls are given as the source filed them. Calls come from the whole dose curve.
Assign a class; possible classes are t for active, f for inactive

Prompt: What outcome does the record of this test show for CCOc1ccccc1-n1c(C(C)N2CCN(C(=O)COc3ccc(Cl)cc3)CC2)nc2ccccc2c1=O (stereo not given) ?
Response: t

Prompt: Look up the recorded call for ClC1C(Cl)C(Cl)C(Cl)C(Cl)C1Cl (stereo not given) in this test.
Response: f

Prompt: Assay result, entry CCC1C(C)=NN=C(c2ccc(OC)c(OC)c2)c2cc(OC)c(OC)cc21 (stereo not given) — outcome?
Response: f

Prompt: For O=C1OC2(c3cc(Br)c(O)cc3Oc3c2cc(Br)c(O)[c]3[Hg])c2ccccc21 (stereo not given) , which call appears in the assay record?
Response: t

Prompt: Hi, sorry to bother you, what did the test record for CC1=C2C[C@H]3[C@@H](CC=C4C[C@@H](O)CC[C@@]43C)[C@@H]2CC[C@]12O[C@@H]1C[C@H](C)CN[C@H]1[C@H]2C ?
Response: t

* * *

Molecular target: Glutaminase kidney isoform, mitochondrial (Homo sapiens)
Experiment: qHTS for Inhibitors of Glutaminase (GLS): LOPAC Validation (AID 624146); also: nearly all actives have a fitted effect of over 60% in size
Conditions: glutaminase enzyme activity inhibition; series mostly up to 46.1 µM
Inconclusive results are not listed. Calls of active or inactive are those of the source. Calls follow the shape of the dose curve; as a rule, active = well fitted inhibition curve with a large enough effect; inconclusive = small, poorly fitted or top-dose-only effect; inactive = no such curve, though single readings can be large or run the other way.
A correct response names exactly one class from active, inactive

Check out these entries, answers already filled in.
molecule | class.assignment
C=CCN(C1=NCCN1)c1c(Cl)cccc1Cl | inactive
NC(CCCCCP(=O)(O)O)C(=O)O (stereo not drawn) | inactive

Prompt: Fill in: this test's call for CC(N)Cc1c[nH]c2ccc(O)cc12 (stereo not drawn) is ___
Response: active

* * *

Tested on: Tov112D
Test: Primary qHTS to identify gynecologic anti-cancer compounds using libraries of approved drugs and bioactive compounds (AID 1345084); also: nearly all actives have a fitted effect of over 55% in size
Conditions: Gynecologic cancer cell panel viability, ATPlite luminescence, 48 h; series mostly up to 57.5 µM
Results filed as inconclusive are left out. Active and inactive are the calls of the source. Calls follow the shape of the dose curve; as a rule, active = well fitted cell-killing curve with a large enough effect; inconclusive = small, poorly fitted or top-dose-only effect, or effect the other way; inactive = flat fitted curve, though single readings scatter.
Response enum: 1.0 = active, 0.0 = inactive

Completed entries (count: 3):
compound | class.assignment
C=C1[C@@H]2CC[C@@]3(C)[C@H](c4ccoc4)OC(=O)C[C@]13O[C@H]1CC(=O)C(C)(C)[C@H](C(OC(C)=O)C(=O)OC)[C@]12C (some centres not stated) | 0.0
COC(=O)C1(C)CCC(=O)C2(C)c3c(O)cc(C(C)C)cc3C(O)C(OC(C)=O)C12 (configuration not stated) | 0.0
COCC1OC(=O)c2coc3c2C1(C)C1=C(C3=O)C2CCC(=O)C2(C)CC1O (configuration not stated) | 0.0

Field: next compound
Prompt: Field: outcome | Entry: CO[C@@H]1[C@H](O)[C@@H](O[C@@H]2C[C@H]3CC[C@@H]4C(CC[C@]5(C)[C@@H](C6=CC(=O)OC6)CC[C@]45O)[C@@]3(C)[C@H](O)C2)O[C@H](C)[C@@H]1O[C@@H]1O[C@H](CO)[C@@H](O)[C@H](O)[C@H]1O (some centres not stated)
Response: 1.0

* * *

Target: D(1A) dopamine receptor (Homo sapiens) (UniProt P21728)
Sequence (P21728 whole entry, looked up): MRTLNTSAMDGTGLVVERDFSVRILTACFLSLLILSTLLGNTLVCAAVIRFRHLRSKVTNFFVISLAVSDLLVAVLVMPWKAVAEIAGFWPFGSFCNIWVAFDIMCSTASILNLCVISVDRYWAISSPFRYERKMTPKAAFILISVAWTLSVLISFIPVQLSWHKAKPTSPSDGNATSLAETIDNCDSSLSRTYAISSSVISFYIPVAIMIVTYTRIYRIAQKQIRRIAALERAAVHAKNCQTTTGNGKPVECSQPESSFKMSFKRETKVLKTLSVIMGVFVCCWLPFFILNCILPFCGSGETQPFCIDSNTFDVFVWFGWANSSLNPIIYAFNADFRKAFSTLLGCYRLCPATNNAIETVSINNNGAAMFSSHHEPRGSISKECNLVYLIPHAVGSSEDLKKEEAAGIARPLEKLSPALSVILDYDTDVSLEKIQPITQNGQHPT
Test: HTS Assay for Allosteric Agonists of the Human D1 Dopamine Receptor: Primary Screen for Antagonists (AID 488983);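 also: calcium flux response to an EC80 dopamine challenge measured with no-wash dye; nearly all actives have a fitted effect of over 65% in size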
Details: D1 receptor cell assay, antagonist mode, qHTS titration; series mostly up to 41.8 µM
Inconclusive results are not listed. Activity calls are given as the source filed them. Calls come from the whole dose curve; as a rule, active = well fitted inhibition curve with a large enough effect; inconclusive = small, poorly fitted or top-dose-only effect, or effect the other way; inactive = flat fitted curve, though single readings scatter.
I would appreciate it if you answered using one of these outcomes: yes (1) (active), no (0) (inactive)

compound | class.assignment
C[C@H](N)CN1CCc2ccc(Br)cc21 | no (0)
COc1ccc2c(c1O)-c1cccc3c1[C@@H](C2)N(C)CC3 | yes (1)
CN(N=O)c1ccc(O)c(O)c1 | no (0)
COc1cc(CC(C)N)c(OC)cc1I (configuration not stated) | no (0)
C=CCN1C[C@@H](C)N([C@H](c2ccc(C(=O)N(CC)CC)cc2)c2cccc(OC)c2)C[C@@H]1C | no (0)
O=c1c2ccccc2[se]n1-c1ccccc1 | no (0)
CN1CC[C@@]2(C)c3cc(O)ccc3N(C)C12 (some centres not stated) | no (0)
CCCn1c(=O)c2[nH]c(C3CCCC3)nc2n(CCCOC(=O)c2ccc(S(=O)(=O)F)cc2)c1=O | no (0)

Prompt: Query: recorded result category for COc1ccc2c(c1)c(CCN1CCOCC1)c(C)n2C(=O)c1cccc(Cl)c1Cl in this test
Response: no (0)

Prompt: What did the test return for Cc1c2ccncc2c(C)c2c1[nH]c1ccccc12 ?
Response: no (0)

Prompt: Record request — test call for NCCCP(=O)(O)O
Response: no (0)

Prompt: Check the results log: what was the call for N[C@@]1(C(=O)O)CC[C@@H](C(=O)O)C1 ?
Response: no (0)
